biological target: Kv1.5 (Homo sapiens, UniProt P22460); construct: expressed in transfected cells; host or cells: HEK or LTK- cells; assay: Kv1.5 Patch Clamp EP; assay type: cell-based; conditions: 1.0 μM, single point; whole cell patch clamp, Kv1.5 stably over expressed in HEK or LTK- cells
Sequence (P22460 whole entry): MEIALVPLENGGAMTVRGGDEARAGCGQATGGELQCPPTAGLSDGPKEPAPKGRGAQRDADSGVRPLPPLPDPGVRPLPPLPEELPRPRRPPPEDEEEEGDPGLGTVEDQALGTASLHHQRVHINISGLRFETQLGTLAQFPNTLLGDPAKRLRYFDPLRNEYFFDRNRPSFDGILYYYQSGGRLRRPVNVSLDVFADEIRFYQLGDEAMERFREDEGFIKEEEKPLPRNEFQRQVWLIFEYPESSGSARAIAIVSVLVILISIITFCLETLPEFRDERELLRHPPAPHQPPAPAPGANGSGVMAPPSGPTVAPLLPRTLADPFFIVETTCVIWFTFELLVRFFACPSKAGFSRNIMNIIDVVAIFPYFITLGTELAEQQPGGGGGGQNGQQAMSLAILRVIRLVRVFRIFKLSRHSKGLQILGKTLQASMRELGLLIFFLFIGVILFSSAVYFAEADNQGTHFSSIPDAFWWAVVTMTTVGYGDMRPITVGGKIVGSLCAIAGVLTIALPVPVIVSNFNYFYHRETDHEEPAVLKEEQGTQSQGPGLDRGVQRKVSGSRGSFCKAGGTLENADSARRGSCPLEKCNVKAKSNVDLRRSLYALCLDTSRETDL
Binary classification by inhibition at 1 µM, with 40% as an inclusive lower bound for Yes; all other cases are No.

* COc1ccc(CCCN2C(=O)N(NS(C)(=O)=O)CC2c2ccc(OC)cc2)cc1 (centres unmarked) [Compound 49] | Yes
* COc1ccc(CN2C(=O)N(NS(C)(=O)=O)CC2c2ccc(C3CC3)cc2)cc1 (centres unmarked) [Compound 19] | No
* COc1ccc(CCN2C(=O)N(NC(=O)Cc3cccnc3)CC2c2ccc(C3CC3)cc2)cc1 (centres unmarked) [Compound 122] | No
* COc1ccc(CCN2C(=O)N(N)CC2C2(c3ccccc3)CC2)cc1 (centres unmarked) [Compound 156] | No
* COc1ccc(CCN2C(=O)N(NS(C)(=O)=O)CC2c2ccc(OC(F)F)cc2)cc1 (centres unmarked) [Compound 26] | Yes
* COc1ccc(CCN2C(=O)N(NCc3ccncc3)CC2c2ccc(C(C)(C)C)cc2)cc1 (centres unmarked) [Compound 95] | Yes
* COc1ccc(CCN2C(=O)N(NC(=O)CS(=O)(=O)N(C)C)CC2c2ccc(C3CC3)cc2)cc1 (centres unmarked) [Compound 82] | Yes
* COc1ccc(CCN2C(=O)N(NS(=O)(=O)CC(=O)N(C)C)CC2c2ccc(C3CC3)cc2)cc1 (centres unmarked) [Compound 54] | Yes

====

target: Kv1.5 (Homo sapiens); construct: expressed in transfected cells; host or cells: HEK or LTK- cells; assay: Kv1.5 Patch Clamp EP; type: cell-based; settings: 1.0 μM, single point; whole cell patch clamp, Kv1.5 stably over expressed in HEK or LTK- cells
Class rule met: inhibition at 1 µM at least 60%. Class rule not met: inhibition at 1 µM below 60%.

• CCCCS(=O)(=O)NN1CC(c2ccc(C3CC3)cc2)N(CCc2ccc(OC)cc2)C1=O (stereo not drawn) = rule met
• COc1ccc(CCN2C(=O)N(NC(=O)c3ccco3)CC2c2ccc(C)c(C)c2)cc1 (stereo not drawn) = rule met
• COc1ccc(CCN2C(=O)N(NS(C)(=O)=O)CC2c2ccc(Cl)cc2)cc1 (stereo not drawn) = rule met
• CCC1(CC)CN(NS(C)(=O)=O)C(=O)N1CCc1ccc(OC)cc1 = rule not met
• COc1ccc(CCN2C(=O)N(NCc3cc[n+]([O-])cc3)CC2c2ccc(C)c(C)c2)cc1 (stereo not drawn) = rule not met
• COc1ccc(CCN2C(=O)N(NC(=O)c3cnccn3)CC2c2ccc(C(C)(C)C)cc2)cc1 (stereo not drawn) = rule not met
• CC(C)(C)c1ccc(C2CN(NS(C)(=O)=O)C(=O)N2CCc2ccc(OCCN3CCOCC3)cc2)cc1 (stereo not drawn) = rule not met

====

biological target: UniProtKB P22460; assay: Kv1.5 Patch Clamp EP; settings: whole cell patch clamp, HEK or LTK- cells; at least four concentrations, n=3
Entries and their measured IC50 follow.
assay_metric: IC50 (µM)

- COc1ccc(CCN2C(=O)N(NS(C)(=O)=O)C[C@H]2c2ccc(OC)cc2)cc1: 0.474
- COc1ccc(CCN2C(=O)N(NS(N)(=O)=O)CC2c2ccc(C(C)(C)C)cc2)cc1 (centres unmarked): 0.689
- COc1ccc(CCN2C(=O)N(NS(C)(=O)=O)CC2c2ccc(C3CC3)cc2)cc1 (centres unmarked): 0.184
- COc1ccc(CCN2C(=O)N(NS(C)(=O)=O)C[C@@H]2c2ccc(OC)cc2)cc1: 1.1
- COc1ccc(CCN2C(=O)N(NCc3ccncc3)CC2c2ccc(C)c(C)c2)cc1 (centres unmarked): 0.57
- COc1ccc(CCN2C(=O)N(NS(C)(=O)=O)CC2c2ccc(OC(F)F)cc2)cc1 (centres unmarked): 0.716
- COc1ccc(CCN2C(=O)N(NS(C)(=O)=O)CC2c2ccc(C(C)(C)C)cc2)cc1 (centres unmarked): 0.514
- COc1ccc(CCN2C(=O)N(NS(C)(=O)=O)CC2c2ccc(OC)cc2)cc1 (centres unmarked): 0.703
